assay protocol: Lipid clearance: % dose remaining in liver of CD-1 mice
Format: in vivo
assay setup: intravenous, 0.5 mg/kg, CD-1 mouse, Table 8a
Hi, to clarify the labels: Met covers % Dose Remaining 24 hr from 60% upward, Not met covers anything below 60%.

1) CCCCC/C=C\CCN(CC/C=C\CCCCC)CCN(CC/C=C\CCCCC)CC(=O)N1CCN(C(=O)CN(CCCCCCCCC)CCCCCCCC(=O)OC)CC1 [Compound 139] :: Not met
2) CCCCCCCCCCCCCCN(CCCCCC(=O)OCCCCCCC)CCC1CCCN(C(=O)CN(CCCCCCCCC)CCN(CCCCCCCCC)CCCCCCCCC)C1 (stereo not shown) [Compound 121] :: Not met
3) CCCCCCCCCN(CCCC(=O)OCCCCC)CCC(=O)N1CCN(C(=O)CCN(CCCCCCCCC)CCN(CCCCCCCCC)CCCCCCCCC)CC1 [Compound 62] :: Not met
4) CCCCCCCCCCCCCCN(CCCCCCCC(=O)OCCCCC)CCC1CCCN(C(=O)CN(CCCCCCCCC)CCN(CCCCCCCCC)CCCCCCCCC)C1 (stereo not shown) [Compound 120] :: Not met
5) CCCCC/C=C\CCN(CC/C=C\CCCCC)CCN(CC/C=C\CCCCC)CC(=O)N1CCN(C(=O)CN(CCCCCCCCC)CCCCCCCCC)CC1 [Compound 136] :: Not met
6) CCCCCCCCCN(CCCCCCCCC)CCN(CCCCCCCCC)CC(=O)N1CCN(C(=O)CN(CCCCCCCCC)CCCOC(=O)CC(C)CCC)CC1 (stereo not shown) [Compound 131] :: Met
7) CCCCCCCCCCCCN(CCCOC(=O)CCCCCCC)CC(=O)N1CCN(C(=O)CN(CCCCCCCCC)CCN(CCCCCCCCC)CCCCCCCCC)CC1 [Compound 135] :: Not met
8) CCCCCCCCCN(CCCCCCCCC)CCC1CCCN(C(=O)CN(CCCCCCCCC)CCN(CCCCCCCCC)CCCCCCCCC)C1 (stereo not shown) [Compound 73] :: Met
9) CCCCCCCCCCCCCCN(CCCCCCCCCCCC(=O)OC)CC(=O)N1CCN(C(=O)CN(CCCCCCCCC)CCN(CCCCCCCCC)CCCCCCCCC)CC1 [Compound 117] :: Not met
10) CCCCCC=CCC=CCCCCCCCCC(CCCCCCCCC=CCC=CCCCCC)OC(=O)CCCN(C)C (stereo not shown) [MC3, reference compound] :: Met

----------
assay protocol: Lipid clearance: % dose remaining in liver of CD-1 mice
Format: in vivo
assay setup: intravenous, 0.5 mg/kg, CD-1 mouse, Table 8a
rule met if % Dose Remaining 24 hr is below 30%. rule not met if not; exact matches included in rule not met.

1. CCCCCCCCCCCCCCN(CCCCCC(=O)OCCCCCCC)CC(=O)N1CCN(C(=O)CN(CCCCCCCCC)CCN(CCCCCCCCC)CCCCCCCCC)CC1 :: rule met
2. CCCCCCCCCCCCCCN(CCCCCC(=O)OCCCCCCC)CCC1CCN(C(=O)CN(CCCCCCCCC)CCN(CCCCCCCCC)CCCCCCCCC)C1 (stereo not shown) :: rule met
3. CCCCCCCCCN(CCCCCCCCC)CCN(CCCCCCCCC)CC(=O)N(C)CCN(C)C(=O)CN(CCCCCCCCC)CCCCCCCCC :: rule not met
4. CCCCCCCCCN(CCCC(=O)OCCCCC)CCCC1CCN(C(=O)CCN(CCCCCCCCC)CCN(CCCCCCCCC)CCCCCCCCC)CC1 :: rule met
5. CCCCCCCCCN(CCCCCCCCC)CCN(CCCCCCCCC)CC(=O)N1CCN(C(=O)CN(CCCCCCCCC)CCCC(=O)SCCCCC)CC1 :: rule not met
6. CCCCCCCCCCCCCCN(CCCOC(=O)CCCCCCCCC)CCC1CCN(C(=O)CN(CCCCCCCCC)CCN(CCCCCCCCC)CCCCCCCCC)C1 (stereo not shown) :: rule met
7. CCCCCCCCCN(CCCCCCCCC)CCN(CCCCCCCCC)CC(=O)OC1CCC(OC(=O)CN(CCCCCCCCC)CCCCCCCCC)CC1 (stereo not shown) :: rule not met
8. CCCCCCCCCCCCCCN(CCCCCCCC(=O)OCCCCC)CCC1CCN(C(=O)CN(CCCCCCCCC)CCN(CCCCCCCCC)CCCCCCCCC)CC1 :: rule met
9. CCCCCCCCCN(CCCCCCCCC)CC(=O)N1CCN(C(=O)CN(CCCCCCCCC)CCCCCCCCC)CC1 :: rule not met

----------
assay protocol: Lipid purity change after storage in EtOH for 96 h at 25 or 37 °C
Type: physicochemical
assay setup: 25° C.
recorded metric: Lipid % change purity in EtOH, 25° C., 96 h (%)

1) CC/C=C\COC(=O)CCCN(CCCCCCCCC)CC(=O)N1CCN(C(=O)CN(CCCCCCCCC)CCN(CCCCCCCCC)CCCCCCCCC)CC1 :: 4
2) CCCCCCCCCN(CCCCCCCCC)CCN(CCCCCCCCC)CC(=O)N1CCN(C(=O)CN(CCCCCCCCC)CCCOC(=O)CC(C)CCC)CC1 (stereo not drawn) :: 11.96
3) CCCCCCCCCCCCCCN(CCCOC(=O)CCCCCCCCC)CCC1CCCN(C(=O)CN(CCCCCCCCC)CCN(CCCCCCCCC)CCCCCCCCC)C1 (stereo not drawn) :: 1
4) CCCCCCCCCN(CCCCCCCCC)CCN(CCCCCCCCC)CC(=O)N(C)CCN(C)C(=O)CN(CCCCCCCCC)CCCCCCCCC :: −0.7
5) CCCCCCCCCN(CCCCCCCCC)CCN(CCCCCCCCC)CC(=O)N(C)CCN(C)C(=O)CN(CCCCCCCCC)CCCC(=O)OCCCCC :: 0
6) CCCCC/C=C\CCN(CC/C=C\CCCCC)CCN(CC/C=C\CCCCC)CC(=O)N1CCN(C(=O)CN(CCCCCCCCC)CCCCCCCCC)CC1 :: −0.71
7) CCCCCCCCCN(CCCCCCCCC)CCN(CCCCCCCCC)CC(=O)N1CCN(C(=O)CN(CCCCCCCCC)CCCCCOC(=O)OC)CC1 :: 0
8) CCCCCCCCCCCCCCN(CCCCCC(=O)OCCCCCCC)CC(=O)N1CCN(C(=O)CN(CCCCCCCCC)CCN(CCCCCCCCC)CCCCCCCCC)CC1 :: 1
9) CCCCCCCCCN(CCCOC(=O)CCCCC)CCC(=O)N1CCN(C(=O)CCN(CCCCCCCCC)CCN(CCCCCCCCC)CCCCCCCCC)CC1 :: 8.1
10) CCCCCCCCCCCCCCN(CCCCCCCC(=O)OCCCCC)CCC1CCN(C(=O)CN(CCCCCCCCC)CCN(CCCCCCCCC)CCCCCCCCC)C1 (stereo not drawn) :: −4.6
11) CCCCCCCCCN(CCCCCCCCC)CCN(CCCCCCCCC)CC(=O)N1CCN(C(=O)C(C)N(CCCCCCCCC)CCCC(=O)OCCCCC)CC1 (stereo not drawn) :: 6.3
12) CCCCCC/C=C\CC(=O)OCCCN(CCCCCCCCCCCCCC)CC(=O)N1CCN(C(=O)CN(CCCCCCCCC)CCN(CCCCCCCCC)CCCCCCCCC)CC1 :: 0.36

----------
assay protocol: Lipid purity change after storage in EtOH for 96 h at 25 or 37 °C
Format: physicochemical
assay setup: 37° C.
Each entry falls in a class defined on Lipid % change purity in EtOH, 37° C., 96 h; the bands are bin A (below 2%), bin B (2% to below 4%), bin C (4% or more)

1) CCCCCC/C=C\CC(=O)OCCCN(CCCCCCCCCCCCCC)CC(=O)N1CCN(C(=O)CN(CCCCCCCCC)CCN(CCCCCCCCC)CCCCCCCCC)CC1 :: bin A
2) CCCCCCCCCCCCCCN(CCCCCCCCCCCC(=O)OC)CC(=O)N1CCN(C(=O)CN(CCCCCCCCC)CCN(CCCCCCCCC)CCCCCCCCC)CC1 :: bin C
3) CCCCC/C=C\CCN(CC/C=C\CCCCC)CCN(CC/C=C\CCCCC)CC(=O)N1CCN(C(=O)CN(CCCCCCCCC)CCCCCCCCC)CC1 :: bin A
4) CCCCCCCCCCCCCCN(CCCCCC(=O)OCCCCCCC)CC(=O)N1CCN(C(=O)CN(CCCCCCCCC)CCN(CCCCCCCCC)CCCCCCCCC)CC1 :: bin B
5) CCCCCCCCCN(CCCCCCCCC)CCN(CCCCCCCCC)CC(=O)N(C)CCN(C)C(=O)CN(CCCCCCCCC)CCCCCCCCC :: bin B
6) CC/C=C\COC(=O)CCCN(CCCCCCCCC)CC(=O)N1CCN(C(=O)CN(CCCCCCCCC)CCN(CCCCCCCCC)CCCCCCCCC)CC1 :: bin B
7) CCCCCCCCCCCCCCN(CCCCCC(=O)OCCCCCCC)CCC1CCN(C(=O)CN(CCCCCCCCC)CCN(CCCCCCCCC)CCCCCCCCC)CC1 :: bin C
8) CCCCCCCCCN(CCCCCCCCC)CCN(CCCCCCCCC)CCOC(=O)C1CCN(C(=O)CN(CCCCCCCCC)CCCCCCCCC)CC1 :: bin C
9) CCCCCCCCCCCCCCN(CCCOC(=O)CCCCCCCCC)CCC1CCN(C(=O)CN(CCCCCCCCC)CCN(CCCCCCCCC)CCCCCCCCC)C1 (centres unmarked) :: bin B
10) CCCCCCCCCCCCCCN(CCCCCCCCCCCC(=O)OC)CCC1CCN(C(=O)CN(CCCCCCCCC)CCN(CCCCCCCCC)CCCCCCCCC)C1 (centres unmarked) :: bin B

Values from patent US12077501B2
